# test: Population pharmacokinetic
# Type: in vivo, human
# condition-info: human, plasma, oral, Cmax, eGFR ≥120 ml/min/1.73 m^2, >40kg (n=5), final PK visit, geometric mean (%CV)
measure-name: Cmax

structure-smiles-string: CCS(=O)(=O)N1CC(CC#N)(n2cc(-c3ncnc4[nH]ccc34)cn2)C1
assay-value: 136 nM

====

# test: Population pharmacokinetic
# Assay type: in vivo, human
# condition-info: human, plasma, oral, AUC24,SS, eGFR ≥120 ml/min/1.73 m^2, >40kg (n=5), final PK visit, geometric mean (%CV)

structure-smiles-string: CCS(=O)(=O)N1CC(CC#N)(n2cc(-c3ncnc4[nH]ccc34)cn2)C1
AUC [µM·h]: 1.94

Where these numbers come from: paper PMC6089664
